- Experimental system: glucokinase (GK), residues 12-465 of the human enzyme (Homo sapiens, UniProt P35557)
- Construct: I.D. No. 1 corresponds to residues 12-465 of glucokinase; made in house; host or cells: E. coli DH10b-Tlr
- Method description: Enzymatic glucokinase activity assay (KinaseGlo luminescence, ATP consumption)
- Assay type: biochemical
- Condition details: calculated maximal gain in GK enzyme activity at a saturating concentration of the compound; 5 μM ATP, 5 mM Glucose; read-out: % ACTmax
Quantity kind: Emax

>>> observed_measurement("O=C(Nc1ncc(Cl)s1)C(CC1CCOCC1)N1CCN(S(=O)(=O)c2cccs2)CC1=O (stereo not drawn)")
"108 to 119%"
>>> observed_measurement("O=C(Nc1nccs1)[C@H](CC1CCCCC1)N1CCN(S(=O)(=O)c2ccc(-c3cnco3)s2)CC1=O")
"97.1 to 107%"
>>> observed_measurement("COc1ccc(S(=O)(=O)N2CCN([C@@H](CC3CCCCC3)C(=O)Nc3nccs3)C(=O)C2)cc1OC")
"97.1 to 107%"
>>> observed_measurement("O=C(Nc1nccs1)[C@H](CC1CCCCC1)N1CCN(S(=O)(=O)c2cc(Cl)cc(Cl)c2)CC1=O")
"74.1 to 97%"
>>> observed_measurement("O=C(Nc1nccs1)[C@H](CC1CCCCC1)N1CCN(C(=S)NC2CC2)CC1=O")
"97.1 to 107%"
>>> observed_measurement("O=C(Nc1nccs1)[C@H](CC1CCCCC1)N1CCN(S(=O)(=O)Cc2ccc(F)cc2)CC1=O")
"97.1 to 107%"
>>> observed_measurement("Cc1c(S(=O)(=O)N2CCN([C@@H](CC3CCCCC3)C(=O)Nc3nccs3)C(=O)C2)cnn1-c1ccccc1")
"≤ 74%"
>>> observed_measurement("O=C(Nc1nccs1)[C@H](CC1CCCCC1)N1CCN(S(=O)(=O)c2cc(F)c(Cl)cc2F)CC1=O")
"74.1 to 97%"
>>> observed_measurement("O=C(O)c1ccc(S(=O)(=O)N2CCN([C@@H](CC3CCCCC3)C(=O)Nc3nccs3)C(=O)C2)cc1")
"≤ 74%"
>>> observed_measurement("Cc1ccccc1S(=O)(=O)N1CCN([C@@H](CC2CCCCC2)C(=O)Nc2nccs2)C(=O)C1")
"108 to 119%"
>>> observed_measurement("Cc1ccc(S(=O)(=O)N2CCN([C@@H](CC3CCCCC3)C(=O)Nc3nccs3)C(=O)C2)cc1")
"108 to 119%"
>>> observed_measurement("O=C(Nc1nccs1)[C@H](CC1CCCCC1)N1CCN(S(=O)(=O)c2cc(Cl)c(Cl)s2)CC1=O")
"≤ 74%"
>>> observed_measurement("Cn1nc(-c2ccc(S(=O)(=O)N3CCN([C@@H](CC4CCCCC4)C(=O)Nc4nccs4)C(=O)C3)s2)cc1C(F)(F)F")
"≤ 74%"
>>> observed_measurement("Cn1nc(C(F)(F)F)cc1-c1ccc(S(=O)(=O)N2CCN([C@@H](CC3CCCCC3)C(=O)Nc3nccs3)C(=O)C2)s1")
"≤ 74%"
>>> observed_measurement("O=C(Nc1nccs1)[C@H](CC1CCCCC1)N1CCN(C(=O)Nc2ccc(C(F)(F)F)cc2)CC1=O")
"≤ 74%"

---

List of Emax values.
- Experimental system: glucokinase (GK), residues 12-465 of the human enzyme (Homo sapiens)
- Construct: I.D. No. 1 corresponds to residues 12-465 of glucokinase; made in house; host or cells: E. coli DH10b-Tlr
- Sequence (P35557 with tags, fused parts or gaps isoform P35557-2): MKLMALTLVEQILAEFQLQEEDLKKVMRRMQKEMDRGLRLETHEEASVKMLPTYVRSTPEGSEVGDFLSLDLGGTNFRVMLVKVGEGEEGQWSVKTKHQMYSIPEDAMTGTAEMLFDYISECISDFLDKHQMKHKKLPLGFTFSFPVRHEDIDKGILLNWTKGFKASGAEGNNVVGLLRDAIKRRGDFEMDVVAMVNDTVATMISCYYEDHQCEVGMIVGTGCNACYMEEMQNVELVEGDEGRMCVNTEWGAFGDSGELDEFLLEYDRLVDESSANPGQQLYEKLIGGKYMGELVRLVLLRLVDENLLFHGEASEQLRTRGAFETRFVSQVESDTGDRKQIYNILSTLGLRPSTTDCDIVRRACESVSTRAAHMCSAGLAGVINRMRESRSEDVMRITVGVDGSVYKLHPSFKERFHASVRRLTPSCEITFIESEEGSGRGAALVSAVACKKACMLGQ
- Method description: Enzymatic glucokinase activity assay (KinaseGlo luminescence, ATP consumption)
- Format: biochemical
- Condition details: calculated maximal gain in GK enzyme activity at a saturating concentration of the compound; 5 μM ATP, 5 mM Glucose; read-out: % ACTmax
Quantity kind: Emax

>>> observed_measurement("Cn1cc(S(=O)(=O)N2CCN([C@@H](CC3CCCCC3)C(=O)Nc3nccs3)C(=O)C2)c(C(F)(F)F)n1")
"108 to 119%"
>>> observed_measurement("O=C(Nc1nccs1)[C@H](CC1CCCCC1)N1CCN(S(=O)(=O)c2cnc(Cl)c(Br)c2)CC1=O")
"≤ 74%"
>>> observed_measurement("Cc1noc(C)c1S(=O)(=O)N1CCN([C@@H](CC2CCCCC2)C(=O)Nc2nccs2)C(=O)C1")
"74.1 to 97%"
>>> observed_measurement("O=C(Nc1nccs1)[C@H](CC1CCCCC1)N1CCN(C(=O)Nc2cccc3ccccc23)CC1=O")
"74.1 to 97%"
>>> observed_measurement("CCc1ccc(S(=O)(=O)N2CCN([C@@H](CC3CCCCC3)C(=O)Nc3nccs3)C(=O)C2)cc1")
"97.1 to 107%"
>>> observed_measurement("O=C(Nc1nccs1)[C@H](CC1CCCCC1)N1CCN(S(=O)(=O)c2cccc(Cl)c2)CC1=O")
"108 to 119%"
>>> observed_measurement("O=C(Nc1nccs1)[C@H](CC1CCCCC1)N1CCN(S(=O)(=O)c2ccco2)CC1=O")
"74.1 to 97%"

Origin of values: patent US8173645B2
